biological target: His-tagged canine IL-31 (interleukin 31) recombinant protein (canine); assay: BLI (Gator), biotinylated antibody on streptavidin probe, canine IL-31 as analyte
EXPERIMENTAL READOUT: koff (s⁻¹)
State the answer as a number, implicitly in s⁻¹.

Record excerpt, results attached:
Please report the recorded koff for 7475-H1K2-canIgGB (antibody, V domains shown) VH: EVQLVESGGDLVKPGGSLRLSCVASGFTFSSYAMSWVRQAPGKGLQWVAYISNGGDYIFYADTVKGRFTISRDNARNTLYLQMNSLRSEDTAVYYCTRRGHYNTSSYWYFDVWGQGTLVTVSS VL: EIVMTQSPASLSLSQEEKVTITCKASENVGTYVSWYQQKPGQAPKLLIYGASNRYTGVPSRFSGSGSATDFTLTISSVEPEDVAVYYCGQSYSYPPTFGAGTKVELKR . 0.000614

Please report the recorded koff for 6465-H1K1-canIgGB (antibody, V domains shown) VH: EVQLVESGGDLVKPGGSLRLSCVASGYSFTNYYLYWVRQAPGKGLEWVGELNPRNGGTNLNAKFKTRFTISVDKAKNMAYLQMNSLRAEDTAVYYCTRGGTTVVVRDVMDFWGQGTLVTVSS VL: EIVLTQTPLSLAVTPGELATISCRASESVDSYGNSFMHWYLQKPGQTPRLLIYRASNLESGVSDRFSGSGSRTDFTLKISRVEAEDVGVYYCQQSNEDPYTFGQGTKLEIKR . 0.000979

Further cases:
Please report the recorded koff for 6465-H1K3-canIgGB (antibody, V domains shown) VH: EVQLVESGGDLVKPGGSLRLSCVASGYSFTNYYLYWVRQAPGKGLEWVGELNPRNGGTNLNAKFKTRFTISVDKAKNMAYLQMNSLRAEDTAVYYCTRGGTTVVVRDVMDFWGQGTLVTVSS VL: DIVMTQTPLSLSVSPGEPASISCRASESVDSYGNSFMHWYRQKPGQSPQLLIYRASNLESGVPDRFSGSGSGTDFTLRISRVEADDAGVYYCQQSNEDPYTFGQGTKLEIKR . 0.00145
